Answer each item with its documented solubility.
# Assay details: Solubility test, equilibrium method, UV-visible spectrophotometry
# Assay type: physicochemical
# Assay context: saline or isotonic, thermodynamic from solid; normal saline; read-out: Solubility in Normal Saline (NS)
One number for each entry, in µg/mL.

Study these solved cases before continuing.
Fill blank: measured solubility of the compound CCc1c2c(nc3ccc(OC(=O)NCCOCCOCc4cn([C@H]5O[C@@H](CO)[C@H](O)[C@@H](O)[C@@H]5O)nn4)cc13)-c1cc3c(c(=O)n1C2)COC(=O)[C@]3(O)CC is ____.
1440

Another compound: CCc1c2c(nc3ccc(OC(=O)NCCCOCc4cn([C@H]5O[C@@H](CO)[C@H](O)[C@@H](O)[C@@H]5O)nn4)cc13)-c1cc3c(c(=O)n1C2)COC(=O)[C@]3(O)CC
642

More entries:
# query: solubility of entry CCc1c2c(nc3ccc(OC(=O)NCCOCc4cn(CCO[C@H]5O[C@@H](CO)[C@H](O)[C@@H](O)[C@@H]5O)nn4)cc13)-c1cc3c(c(=O)n1C2)COC(=O)[C@]3(O)CC
3350

# credit: patent US20210246157A1
